Values from patent US9957332B2

# Protocol Description: Cocaine pharmacokinetics in plasma and brain (GC/MS), absence of mAb
# Reported Conditions: male, Swiss-Webster, mouse, plasma, iv, […], plasma terminal elimination half-life (t1/2β) of cocaine, mice, cocaine HCl […] i.v., absence of 2E2, two-compartment model
Attribute Measured: half-life

Compound: COC(=O)[C@H]1[C@@H](OC(=O)c2ccccc2)C[C@@H]2CC[C@H]1N2C [cocaine]
Result: 26.1 min

* * *

# Protocol Description: Cocaine pharmacokinetics in plasma and brain (GC/MS), absence of mAb
# Reported Conditions: male, Swiss-Webster, mouse, brain, iv, […], t1/2 for entry (input) of cocaine into the brain, mice, absence of 2E2
Attribute Measured: half-life (min)

Chem Smiles: COC(=O)[C@H]1[C@@H](OC(=O)c2ccccc2)C[C@@H]2CC[C@H]1N2C
Numeric Value: 2
